These data points were gathered from patent US20230159546A1.

SUBJECT_OF_TEST: SARS-CoV-2 3CL-protease (Severe acute respiratory syndrome coronavirus 2, UniProt P0DTD1)
ASSAY_NAME: SARS-CoV-2 3C-like (3CL) protease fluorescence assay (FRET)
Type: biochemical
TEST_SETTINGS: recombinant SARS-CoV-2 3CL-protease 10 nM, 30 min preincubation at RT, duplicate; read-out: FRET IC50
pIC50: −log10 of the molar value.
MEASURED_PARAMETER: pIC50

>>> result("N#C[C@@H]1C[C@@]2(CN1C(=O)c1ccc3cccnc3c1)C(=O)Nc1ccccc12")
"< 6.00"
>>> result("N#C[C@@H]1C[C@@]2(CN1C(=O)OCc1nccs1)C(=O)Nc1ccccc12")
"< 6.00"
>>> result("N#C[C@@H]1C[C@@]2(CN1C(=O)[C@@H](Cc1ccccc1)C(=O)NC1CCCCC1)C(=O)Nc1ccccc12")
"< 6.00"
>>> result("N#C[C@@H]1C[C@@]2(CN1C(=O)C(F)(Cc1ccccc1)C(=O)Nc1ccccc1)C(=O)Nc1ccccc12 (stereo partly shown)")
"< 6.00"
>>> result("N#C[C@@H]1C[C@@]2(CN1NC(=O)c1ccccc1)C(=O)Nc1ccccc12")
"< 6.00"
>>> result("N#C[C@@H]1C[C@@]2(CN1C(=O)C(=O)OC1CCCC1)C(=O)Nc1ccccc12")
"< 6.00"
>>> result("N#C[C@@H]1C[C@@]2(CN1C(=O)CC(=O)N[C@@H]1CC[C@H](O)C1)C(=O)Nc1ccccc12")
"< 6.00"
>>> result("N#C[C@@H]1C[C@@]2(CN1C(=O)C(=O)NCC13CC4CC(CC(C4)C1)C3)C(=O)Nc1ccccc12")
"> 7.00"
>>> result("N#C[C@@H]1C[C@@]2(CN1C(=O)C(=O)OC1CCCCC1)C(=O)Nc1ccccc12")
"6.00 to 7.00"
>>> result("N#C[C@@H]1C[C@@]2(CN1C(=O)C(=O)N[C@H]1CC[C@H](C(F)(F)F)CC1)C(=O)Nc1ccccc12")
"< 6.00"
>>> result("C[C@]1(O)CC[C@@H](NC(=O)C(=O)N2C[C@]3(C[C@H]2C#N)C(=O)Nc2ccccc23)CC1")
"< 6.00"
>>> result("CN(C(=O)C(Cc1ccccc1)C(=O)N1C[C@]2(C[C@H]1C#N)C(=O)Nc1ccccc12)c1ccccc1 (stereo partly shown)")
"< 6.00"
>>> result("CC(C)C(=O)NN1C[C@]2(C[C@H]1C#N)C(=O)Nc1ccccc12")
"< 6.00"
>>> result("N#C[C@@H]1C[C@@]2(CN1C(=O)C(=O)NC1CCCCC1)C(=O)Nc1ccccc12")
"6.00 to 7.00"
>>> result("N#C[C@@H]1C[C@@]2(CN1C(=O)C(=O)OCc1nccs1)C(=O)Nc1ccccc12")
"< 6.00"
>>> result("N#C[C@@H]1C[C@@]2(CN1S(=O)(=O)c1ccc(Oc3ccccc3)cc1)C(=O)Nc1ccccc12")
"< 6.00"
